As shown below, each of these compounds has a reported pEC50 value.
Test system: Human immunodeficiency virus 1
Assay: Antiviral activity against NNRTI-resistant HIV-1 RES056 infected in human MT4 cells assessed as virus-induced cytopathicity treated for 5 days by MTT assay
Format: functional, organism-based
Conditions: Human immunodeficiency virus 1, RES056, MT4, 120 h
The scale used: pEC50 is minus the common logarithm of the concentration in molar units.

COMPOUND_STRING	pEC50
Cc1cc(/C=C/C#N)cc(C)c1Oc1nc(NC2CCN(Cc3ccc(S(N)(=O)=O)cc3)CC2)ncc1-c1ccc(O)cc1	7.58
Cc1cc(/C=C/C#N)cc(C)c1Oc1nc(NC2CCN(Cc3ccc(S(C)(=O)=O)cc3)CC2)ncc1-c1ccc(N)cc1	7.47
Cc1cc(/C=C/C#N)cc(C)c1Oc1nc(NC2CCN(Cc3ccc(S(C)(=O)=O)cc3)CC2)ncc1-c1ccccc1N	6.96
Cc1cc(/C=C/C#N)cc(C)c1Oc1nc(NC2CCN(Cc3ccc(C(N)=O)cc3)CC2)ncc1-c1cccc(O)c1	7.45
CC(=O)c1ccc(-c2cnc(NC3CCN(Cc4ccc(C(N)=O)cc4)CC3)nc2Oc2c(C)cc(/C=C/C#N)cc2C)cc1	7.26

*Q* Look up pEC50 of Cc1cc(/C=C/C#N)cc(C)c1Oc1nc(NC2CCN(Cc3ccc(S(C)(=O)=O)cc3)CC2)ncc1-c1cccc(F)c1 and report it.
*A* 6.91

*Q* Specify measured pEC50 for Cc1cc(/C=C/C#N)cc(C)c1Oc1nc(NC2CCN(Cc3ccc(S(N)(=O)=O)cc3)CC2)ncc1-c1ccc2c(c1)OCO2 .
*A* 7.33

*Q* Specify reported pEC50 for the compound shown: Cc1cc(/C=C/C#N)cc(C)c1Cc1nc(NC2CCN(Cc3ccc(S(N)(=O)=O)cc3)CC2)ncc1-c1cnc(N)nc1
*A* 7.49

*Q* Read the entry Cc1cc(/C=C/C#N)cc(C)c1Oc1nc(NC2CCN(Cc3ccc(S(C)(=O)=O)cc3)CC2)ncc1-c1cccc(O)c1 and write its reported pEC50.
*A* 7.17
